assay: protein stability index of a GFP-peptide fusion (yeast GPS) (PSI 1-4); higher = more stable; sorted into four equal gates, so the index is relative within each strain; settings: san1∆
Reported protein stability index values for a set of sequences
Reported endpoint: protein stability index

{"columns": ["Item sequence", "Recorded value"],
 "data": [
  ["GNRNSSSVFLPSRKDCM [BRR2]", 3.2],
  ["EEIKTVDPASAPNHSPE [RRP6]", 3.27],
  ["DIFGANAASGSNSNVTN [YOR098C/NUP1]", 1.64],
  ["EKFSEKMLKIWTMAFRT [ECM29]", 1.37],
  ["PNIADYITAKNNVVINF [PRP8]", 1.43],
  ["MEKKKSSSLSLESFMKS [SNM1]", 2.62],
  ["QGDGLLTKLQKYGAAVR [RPN7]", 3.17],
  ["KQERSKQERLKENEESL [PRP28]", 3.22],
  ["SSKLVDVYTLPSYVHFK [YML103C/NUP188]", 1.69],
  ["VGSPLTVSILQESSSLR [POP8]", 3.01],
  ["ELQIFKTANSSSDAFEK [YIL149C/MLP2]", 2.61],
  ["MSSTNGNAPATPSSDQN [SOH1]", 3.2],
  ["SVISGNLSLYEATAASH [CSN12]", 2.8],
  ["ERKKSIGSQRGRRLSML [DSN1]", 3.13]
]}

----------
assay: protein stability index of a GFP-peptide fusion (yeast GPS) (PSI 1-4); higher = more stable; sorted into four equal gates, so the index is relative within each strain; conditions: pdr5∆
Binary classification by protein stability index, with 3 as an inclusive lower bound for true; all other cases are false.

{"columns": ["Item sequence", "Group"],
 "data": [
  ["TGAGVSTSLGIPDFRSS [SIR2]", "false"],
  ["DYVASLNELYQTQQDLP [NSL1]", "true"],
  ["DVDPEFYLKYVDIRVGK [RET1]", "false"],
  ["KDYHTLANNVESKLRDD [RPS18A]", "true"],
  ["LKTFHFAGVASMNVTLG [RPO31]", "false"],
  ["FEVLAPKWERVFLFDIE [RRI2]", "false"],
  ["EGAARGTSVYLVDKRID [DIS3]", "true"],
  ["DVETVKREIQEALSEKP [RPC53]", "true"],
  ["RGFKVGLVCADTFRAGA [SRP54]", "false"],
  ["LNDEYNYPQLTEDILKE [YCS4]", "true"],
  ["LLIDQFSPVISQSLTSI [SWI1]", "false"],
  ["VFGTIIPKISDYIEFNI [YJL039C/NUP192]", "false"]
]}

----------
assay: protein stability index of a GFP-peptide fusion (yeast GPS) (PSI 1-4); higher = more stable; sorted into four equal gates, so the index is relative within each strain; details: pdr5∆
# protein stability index listing for each entry below
Reported endpoint: protein stability index

{"columns": ["Item sequence", "Recorded value"],
 "data": [
  ["YAKDILQKEFLPHITQL [RPB2]", 1.8],
  ["LNVYHYFGENSSISWKN [YJL039C/NUP192]", 2.76],
  ["DPFSDVDDDQDYVVAPG [GRR1]", 2.17],
  ["YLLASLKDSKDFDESLK [RPN9]", 2.82],
  ["EHKQLVAEIVQNVISLG [RPC82]", 1.46],
  ["IDWASPEYGRIIASASY [YGL100W/SEH1]", 3.16],
  ["PIPFEFQAVIQKSINHP [SNF2]", 2.61]
]}
